The values you see were collected from ChEMBL document CHEMBL2384910.

Could you please report measured pIC50 for the items listed next?
study_system: Renin (Homo sapiens, UniProt P00797)
Sequence (P00797 whole entry): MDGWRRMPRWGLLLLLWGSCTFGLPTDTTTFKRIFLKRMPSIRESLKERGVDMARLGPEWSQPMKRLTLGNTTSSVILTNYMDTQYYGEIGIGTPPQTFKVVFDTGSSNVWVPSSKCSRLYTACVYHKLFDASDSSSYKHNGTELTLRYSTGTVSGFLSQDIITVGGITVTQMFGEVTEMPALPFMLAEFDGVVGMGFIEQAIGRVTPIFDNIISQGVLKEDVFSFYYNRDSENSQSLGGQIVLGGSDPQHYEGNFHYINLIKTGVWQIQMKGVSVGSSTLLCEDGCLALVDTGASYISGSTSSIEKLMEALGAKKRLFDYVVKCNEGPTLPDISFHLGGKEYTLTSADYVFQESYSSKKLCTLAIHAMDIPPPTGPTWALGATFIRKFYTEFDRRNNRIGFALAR
method: Inhibition of human recombinant renin using Arg-Glu(EDANS)-Ile-His-Pro-Phe-His-Leu-Val-Ile-His-Thr-Lys (DABCYL)-Arg as substrate incubated for 10 mins prior to substrate addition measured after 90 mins by fluorescence assay
Reminder that pIC50 is minus the log10 of a molar concentration.

Record Cc1ccc(F)cc1N1CC(C)(C)N(C[C@H](N)[C@@H](O)C[C@@H](C)C(=O)NCC(C)(C)C)CC1=O.O=C(O)/C=C/C(=O)O : what is its pIC50 with Renin (Homo sapiens, UniProt P00797)?
8.96

# iterate: CC(C)[C@H](C[C@H](O)[C@@H](N)CN1CC(=O)N(c2ccccc2Cl)CC1(C)C)C(=O)Nc1ccccn1.O=C(O)/C=C/C(=O)O
8.74

# iterate: CC[C@H](C[C@H](O)[C@@H](N)CN1CC(=O)N(c2ccccc2Cl)CC1(C)C)C(=O)Nc1ccc(OC)cc1.O=C(O)/C=C/C(=O)O
8.85

# iterate: CC[C@H](C[C@H](O)[C@@H](N)CN1CC(=O)N(c2ccccc2Cl)CC1(C)C)C(=O)Nc1cc(OC)ccn1
8.17

# iterate: CC(C)[C@H](C[C@H](O)[C@@H](N)CN1CC(=O)N(c2ccccc2Cl)CC1(C)C)C(=O)Nc1ccc(F)cn1.O=C(O)/C=C/C(=O)O
9.05

# iterate: CC(C)[C@H](C[C@H](O)[C@@H](N)CN1CC(=O)N(c2ccccc2Cl)CC1(C)C)C(=O)Nc1ncc(F)cc1F.O=C(O)/C=C/C(=O)O
8.77

# iterate: CC[C@H](C[C@H](O)[C@@H](N)CN1CC(=O)N(c2ccccc2Cl)CC1(C)C)C(=O)NC1C2CC3CC1CC(C(N)=O)(C3)C2.O=C(O)/C=C/C(=O)O (some centres undefined)
8.89

# iterate: C[C@H](C[C@H](O)[C@@H](N)CN1CC(=O)N(c2ccccc2Cl)CC1(C)C)C(=O)NCC(C)(C)C
9.00

# iterate: CC(C)[C@H](C[C@H](O)[C@@H](N)CN1CC(=O)N(c2ccccc2Cl)CC1(C)C)C(=O)NC1CCOCC1.O=C(O)/C=C/C(=O)O
8.70
